Listed below: IC50 values for each entry.
- TARGET OR SYSTEM: human ENT1 (Homo sapiens, UniProt Q99808)
- Sequence (Q99808 1-456): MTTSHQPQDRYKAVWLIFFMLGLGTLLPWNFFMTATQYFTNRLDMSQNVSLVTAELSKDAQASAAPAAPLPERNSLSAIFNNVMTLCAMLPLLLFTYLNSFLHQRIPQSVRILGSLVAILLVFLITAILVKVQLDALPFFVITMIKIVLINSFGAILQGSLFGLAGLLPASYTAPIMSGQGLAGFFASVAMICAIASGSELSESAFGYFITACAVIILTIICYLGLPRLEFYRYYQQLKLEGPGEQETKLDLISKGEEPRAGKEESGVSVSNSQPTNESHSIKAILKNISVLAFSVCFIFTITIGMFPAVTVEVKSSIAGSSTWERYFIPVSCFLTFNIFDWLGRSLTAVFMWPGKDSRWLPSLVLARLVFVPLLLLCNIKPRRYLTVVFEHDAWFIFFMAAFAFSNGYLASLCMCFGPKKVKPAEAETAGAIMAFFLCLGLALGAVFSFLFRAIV
ATTRIBUTE MEASURED: IC50

* COc1cc(C(=O)O[C@H]2CCCOc3cc(cc(OC)c3OC)COCCCN3CCCN(CC2)CC3)cc(OC)c1OC (single isomer, unassigned) [Compound 5] | 20 to 500 nM
* COc1cc2cc(c1OC)OCCCC(Oc1nccc3ccccc13)CCN1CCCN(CCCOC2=O)CC1 (stereo not shown) [Compound 23] | 1 to 20 nM
* COc1cc(C(=O)OC2CCCOc3cc(cc(OC)c3OC)CCCCCN3CCCN(CC2)CC3)cc(OC)c1OC (stereo not shown) [Compound 45] | 1 to 20 nM
* COc1ccc(C(=O)OC2CCCOc3cc(cc(OC)c3OC)C(=O)OCCCN3CCCN(CC2)CC3)cc1 (stereo not shown) [Compound 13] | 1 to 20 nM
